// merged dataset of pIC50 values, system = RORc (Homo sapiens, UniProt P51449), multiple refs
pIC50: −log10 of the molar value.
measurement.label: pIC50

Illustrative cases are given below, each with its answer.
- compound: "COC(=O)C1(c2ccc(CN3[C@@H](C)CC[C@H](c4ccccc4)S3(=O)=O)cc2)CCOCC1"
  measured.on: "RORc (Homo sapiens, UniProt P51449)"
  recorded.result: 6.30
- compound: "CN(C(=O)OCCO)[C@@]12CC[C@@H](c3cc(-c4c(F)cccc4F)nnc31)C2(C)C"
  measured.on: "RORc (Homo sapiens, UniProt P51449)"
  recorded.result: 5.83
- compound: "CC[C@@H](O[C@@]12CC[C@@H](c3cc(-c4c(F)cccc4F)nnc31)C2(C)C)C(=O)N1CC(CO)C1"
  measured.on: "RORc (Homo sapiens, UniProt P51449)"
  recorded.result: 6.84
- compound: "CC[C@@H](O[C@@]12CC[C@@H](c3cc(-c4c(F)cccc4F)nnc31)C2(C)C)C(=O)OC"
  measured.on: "RORc (Homo sapiens, UniProt P51449)"
  recorded.result: 7.92
- compound: "CC1(C)[C@H]2CC[C@]1([C@H]1CCCN(C(=O)NC3(CO)COC3)C1)c1nnc(-c3c(F)cccc3F)cc12"
  measured.on: "RORc (Homo sapiens, UniProt P51449)"
  recorded.result: 8.19

[P] CC(C)CN(c1cccc(Cl)c1)S(=O)(=O)c1ccc(N2CCC(NS(C)(=O)=O)CC2)cc1
[Q] C[C@H](O)C(=O)N(C)[C@@]12CC[C@@H](c3cc(-c4c(F)cccc4F)nnc31)C2(C)C
Between P and Q , which one has the lower reported pIC50 value? // return label of chosen record
Q
(Q: 6.04, P: 6.77)
